# credit: patent US5075287A

System: hepatitis B virus surface antigen (HBs)
Experiment: Hepatitis-vaccine enhancing activity (adjuvant activity): anti-HBs IgG in mouse serum by ELISA
Type: in vivo, female CDF1 mice
Settings: Experiment 1; 3 W; 5000-fold dilution
Record form. Attribute: Anti-HBs IgG antibody level in serum (ELISA absorbance at 415 nm). Fill in for each entry.
Answers are plain numbers, in O.D 415 nm.

Past entries and their recorded results:
1. CCCCCCCCCCCCCC(=O)O[C@H](CCCCCCCCCCC)CC(=O)O[C@H]1O[C@H](CO)[C@@H](O)[C@H](O[C@H](C)C(=O)N[C@@H](C)C(=O)N[C@H](CCC(=O)OC)C(N)=O)[C@H]1NC(C)=O	0.064
2. CCCCCCCCCCCCCCC(CCCCCCCCCCCCCC)C(=O)O[C@H]1O[C@H](COC(=O)CCCCCCCCC)[C@@H](O)[C@H](O[C@H](C)C(=O)N[C@@H](C)C(=O)N[C@H](CCC(=O)OC)C(N)=O)[C@H]1NC(C)=O	0.048
3. CCCCCCCCCCCCCCC(CCCCCCCCCCCCCC)C(=O)O[C@H]1O[C@H](COC(=O)CCCCCCCCCCCCC)[C@@H](O)[C@H](O[C@H](C)C(=O)N[C@@H](C)C(=O)N[C@H](CCC(=O)OC)C(N)=O)[C@H]1NC(C)=O	0.069

# evaluate next
Measured Anti-HBs IgG antibody level in serum (ELISA absorbance at 415 nm) of CCCCCCCCCCCCCCC(CCCCCCCCCCCCCC)C(=O)S[C@@H]1O[C@H](COC(=O)CCCCCCCCCCCCC)[C@@H](O)[C@H](O[C@H](C)C(=O)N[C@@H](C)C(=O)N[C@H](CCC(=O)OC)C(N)=O)[C@H]1NC(C)=O : 0.149
